# systemUnderTest: Aβ1–42 (Homo sapiens, UniProt P05067)
# Sequence (P05067 672-713 limits assumed): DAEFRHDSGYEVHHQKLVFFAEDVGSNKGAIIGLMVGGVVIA
# assayName: Inhibition of self-induced Aβ1–42 aggregation (thioflavin-T fluorescence method)
# experimentalConditions: read-out: Aβ1–42 Aggreg. Inhib.
Everything with inhibition at 40 µM lower than 50% is Not met; everything else, including exactly 50%, is Met.

[
  {
    "compound": "COc1ccc(S(=O)(=O)NCCN2CCN(Cc3ccccc3)CC2)cc1",
    "systemUnderTest": "Aβ1–42 (Homo sapiens, UniProt P05067)",
    "className": "Not met"
  },
  {
    "compound": "COc1ccc(S(=O)(=O)NCC2CCN(Cc3ccccc3)CC2)cc1",
    "systemUnderTest": "Aβ1–42 (Homo sapiens, UniProt P05067)",
    "className": "Met"
  },
  {
    "compound": "O=S(=O)(NCCN1CCN(Cc2ccccc2)CC1)c1ccc(-c2ccccc2)cc1",
    "systemUnderTest": "Aβ1–42 (Homo sapiens, UniProt P05067)",
    "className": "Not met"
  },
  {
    "compound": "Cc1ccc(S(=O)(=O)NCCN2CCN(Cc3ccccc3)CC2)cc1",
    "systemUnderTest": "Aβ1–42 (Homo sapiens, UniProt P05067)",
    "className": "Not met"
  },
  {
    "compound": "O=S(=O)(NCC1CCN(Cc2ccccc2)CC1)c1ccc(-c2ccccc2)cc1",
    "systemUnderTest": "Aβ1–42 (Homo sapiens, UniProt P05067)",
    "className": "Met"
  },
  {
    "compound": "Nc1c2c(nc3ccccc13)CCCC2 [Tacrine, tacrine, reference compound]",
    "systemUnderTest": "Aβ1–42 (Homo sapiens, UniProt P05067)",
    "className": "Met"
  }
]

----------
As shown below, each of these compounds has a reported pIC50 value.
# systemUnderTest: AChE (type VI-S, from electric eel) (Electrophorus electricus, UniProt O42275)
# Sequence (O42275 24-633): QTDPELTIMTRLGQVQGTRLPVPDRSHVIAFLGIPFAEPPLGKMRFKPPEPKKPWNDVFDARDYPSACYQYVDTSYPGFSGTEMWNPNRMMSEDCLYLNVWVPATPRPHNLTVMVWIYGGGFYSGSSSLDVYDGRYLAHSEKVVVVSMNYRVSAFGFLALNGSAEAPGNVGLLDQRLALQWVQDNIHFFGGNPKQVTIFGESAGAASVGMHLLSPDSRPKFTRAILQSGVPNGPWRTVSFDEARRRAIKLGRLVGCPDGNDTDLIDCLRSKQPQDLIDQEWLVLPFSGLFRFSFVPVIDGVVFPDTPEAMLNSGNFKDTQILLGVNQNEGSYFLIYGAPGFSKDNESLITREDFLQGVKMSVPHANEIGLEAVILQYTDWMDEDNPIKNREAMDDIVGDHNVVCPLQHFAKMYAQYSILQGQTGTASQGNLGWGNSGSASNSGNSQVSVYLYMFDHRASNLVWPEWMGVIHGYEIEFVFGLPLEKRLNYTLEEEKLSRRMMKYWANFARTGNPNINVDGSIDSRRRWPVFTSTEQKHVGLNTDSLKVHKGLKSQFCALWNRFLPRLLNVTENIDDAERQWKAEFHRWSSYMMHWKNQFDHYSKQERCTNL
pIC50: −log10 of the molar value.

[
  {
    "cpdSmiles": "COc1ccc(S(=O)(=O)NCCN2CCN(Cc3ccccc3)CC2)cc1",
    "resultModifier": "=",
    "pIC50": 4.05
  },
  {
    "cpdSmiles": "Cc1ccc(S(=O)(=O)NCCN2CCN(Cc3ccccc3)CC2)cc1",
    "resultModifier": "≤",
    "pIC50": 4.00
  },
  {
    "cpdSmiles": "O=S(=O)(NCCN1CCN(Cc2ccccc2)CC1)c1ccc(-c2ccccc2)cc1",
    "resultModifier": "=",
    "pIC50": 4.41
  }
]

----------
# Tested on: SH-SY5Y human neuroblastoma cells
# assayName: Dose-response screening of cell viability (MTT reduction assay)
# Assay type: cell-based
# experimentalConditions: SH-SY5Y cells treated 25 h, 2.5–50 μM
quantity: highest non-toxic concentration (selected concentration) (µM)

[
  {
    "molecule": "COc1ccc(S(=O)(=O)NCCN2CCN(Cc3ccccc3)CC2)cc1 [Compound 6]",
    "endpointResult": 40
  },
  {
    "molecule": "COc1ccc(S(=O)(=O)NCC2CCN(Cc3ccccc3)CC2)cc1 [Compound 8]",
    "endpointResult": 30
  },
  {
    "molecule": "O=S(=O)(NCC1CCN(Cc2ccccc2)CC1)c1ccc(-c2ccccc2)cc1 [Compound 9]",
    "endpointResult": 2.5
  },
  {
    "molecule": "O=S(=O)(NCCN1CCN(Cc2ccccc2)CC1)c1ccc(-c2ccccc2)cc1 [Compound 7]",
    "endpointResult": 15
  }
]
